- system: Recombinant RIPK2 protein (Homo sapiens, UniProt O43353)
- Sequence (O43353 whole entry): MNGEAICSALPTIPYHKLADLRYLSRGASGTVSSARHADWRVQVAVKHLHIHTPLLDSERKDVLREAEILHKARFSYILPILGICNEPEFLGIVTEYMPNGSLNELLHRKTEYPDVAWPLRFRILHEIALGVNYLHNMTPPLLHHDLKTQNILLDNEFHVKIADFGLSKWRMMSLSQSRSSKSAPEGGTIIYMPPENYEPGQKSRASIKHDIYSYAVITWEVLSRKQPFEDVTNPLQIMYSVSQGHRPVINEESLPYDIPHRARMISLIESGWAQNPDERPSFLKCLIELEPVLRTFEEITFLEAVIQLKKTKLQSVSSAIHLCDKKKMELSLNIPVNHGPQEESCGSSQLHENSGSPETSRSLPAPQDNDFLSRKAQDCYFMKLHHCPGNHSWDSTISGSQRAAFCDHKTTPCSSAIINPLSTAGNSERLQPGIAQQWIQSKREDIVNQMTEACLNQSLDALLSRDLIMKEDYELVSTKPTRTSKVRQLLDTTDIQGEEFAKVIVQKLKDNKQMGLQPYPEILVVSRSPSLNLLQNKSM
- testDescription: RIPK2 enzyme assay
observedProperty: IC50 (nM)

>>> value("CCCS(=O)(=O)Nc1cc(-c2cc(-c3ccc(N4CCNCC4)cc3)cnc2N)ccc1OC [Compound 18m]")
41
